From: ChEMBL document CHEMBL3991601

biological target: Serine/threonine-protein kinase NLK (Homo sapiens, UniProt Q9UBE8); also: in the data inactive means no Kd found up to 30 µM
Sequence (Q9UBE8 whole entry): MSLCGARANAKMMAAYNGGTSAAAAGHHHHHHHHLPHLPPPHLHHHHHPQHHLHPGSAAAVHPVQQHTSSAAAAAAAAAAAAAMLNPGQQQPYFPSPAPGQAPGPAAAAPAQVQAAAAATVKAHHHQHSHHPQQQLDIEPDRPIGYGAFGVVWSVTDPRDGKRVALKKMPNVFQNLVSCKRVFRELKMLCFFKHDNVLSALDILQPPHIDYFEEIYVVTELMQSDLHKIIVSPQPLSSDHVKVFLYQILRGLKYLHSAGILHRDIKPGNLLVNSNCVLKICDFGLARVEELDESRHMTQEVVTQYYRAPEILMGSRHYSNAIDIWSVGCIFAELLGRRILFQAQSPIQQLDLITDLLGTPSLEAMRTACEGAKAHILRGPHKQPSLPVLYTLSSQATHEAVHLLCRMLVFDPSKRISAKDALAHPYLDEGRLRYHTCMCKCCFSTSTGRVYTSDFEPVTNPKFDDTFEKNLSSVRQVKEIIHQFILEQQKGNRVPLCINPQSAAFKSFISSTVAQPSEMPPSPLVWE
Activity calls are given as the source filed them.
The categories you may choose from are YES (active), NO (inactive)

Worked examples follow.
C=CC(=O)N1CCC[C@H](n2c(=O)n(-c3ccc(Oc4ccccc4)cc3)c3c(N)ncnc32)C1 ... NO
C[C@@H](Oc1cc(C(=O)Nc2ccc(C(=O)N3CCN(C)CC3)cc2)nnc1N)c1c(Cl)ccc(F)c1Cl ... NO
CCOc1cc2ncc(C#N)c(Nc3ccc(F)c(Cl)c3)c2cc1NC(=O)/C=C/CN(C)C ... NO
CNC(=O)c1cc(Oc2ccc(NC(=O)Nc3cc(C(C)(C)C)nn3-c3ccc4ncccc4c3)c(F)c2)ccn1 ... NO

Which outcome was assigned to Nc1ncnc2c1c(-c1cccc(OCc3ccccc3)c1)cn2[C@H]1C[C@@H](CN2CCC2)C1 in this test?
NO

Which outcome was assigned to Cn1cc(-c2cnn3c(N)c(Br)c([C@@H]4CCCNC4)nc23)cn1 in this test?
NO

Which outcome was assigned to CC(C)(C)c1nc(-c2cccc(NS(=O)(=O)c3c(F)cccc3F)c2F)c(-c2ccnc(N)n2)s1 in this test?
NO

Which outcome was assigned to Cc1cc(Nc2ncc(Cl)c(Nc3ccccc3S(=O)(=O)C(C)C)n2)c(OC(C)C)cc1C1CCNCC1 in this test?
NO

Which outcome was assigned to COc1ncc(-c2ccc3nccc(-c4ccnnc4)c3c2)cc1NS(=O)(=O)c1ccc(F)cc1F in this test?
NO

Which outcome was assigned to Cn1cnc2c(F)c(Nc3ccc(Br)cc3F)c(C(=O)NOCCO)cc21 in this test?
NO

Which outcome was assigned to COc1c(OCCCN2CCOCC2)ccc2c1N=C(NC(=O)c1cnc(N)nc1)N1CCN=C21 in this test?
NO

Which outcome was assigned to COc1cc2c(Nc3ccc(Cl)c(Cl)c3F)ncnc2cc1OC[C@@H]1C[C@@H]2CN(C)C[C@@H]2C1 in this test?
NO

Which outcome was assigned to COCc1c(-c2ccc(NC(=O)Nc3cc(C(F)(F)F)ccc3F)c(F)c2)c2c(N)ncnn2c1CN1CCOCC1 in this test?
NO

Which outcome was assigned to CCNC(=O)C#Cc1ccc2c(c1)NC(=O)/C2=C(\Nc1ccc(CN(C)C)cc1)c1ccccc1 in this test?
NO

Which outcome was assigned to O=c1[nH]ccc2cc(OC3CCNCC3)ccc12 [SAR-407899 FREE BASE] in this test?
NO

Which outcome was assigned to CCn1c(C(=O)N(C2CC2)C2CC2)cc2c3c(ncn3C)c(Nc3cc(C)n(C)n3)nc21 in this test?
NO

Which outcome was assigned to CO[C@H]1C[C@@H]2CC[C@@H](C)[C@@](O)(O2)C(=O)C(=O)N2CCCC[C@H]2C(=O)O[C@H]([C@H](C)C[C@@H]2CC[C@@H](OC(=O)C(C)(CO)CO)[C@H](OC)C2)CC(=O)[C@H](C)/C=C(\C)[C@@H](O)[C@@H](OC)C(=O)[C@H](C)C[C@H](C)/C=C/C=C/C=C/1C in this test?
NO

Which outcome was assigned to CC(=O)c1cnc2ccc(-c3cc(Cl)c(O)c(Cl)c3)nc2c1N[C@H]1CC[C@H](CN(C)C)CC1 in this test?
YES

Which outcome was assigned to COc1cc(Nc2ncc3c(n2)-c2ccc(Cl)cc2C(c2c(F)cccc2OC)=NC3)ccc1C(=O)O in this test?
NO

Which outcome was assigned to Cc1cccc(-c2nn3c(c2-c2ccnc4ccc(C(N)=O)cc24)CCC3)n1 in this test?
NO
